Overview of reported melting point across a group of compounds:

Given the entry CC(C)(CN1CCC(CNC(=O)N2C(=O)C(C)(C)c3ccccc32)CC1)C(=O)O , report its measured melting point.
164.5 °C

Recorded melting point for CC1(C)C(=O)N(C(=O)NCC2CCN(C(C)(C)C(=O)O)CC2)c2cc(F)ccc21 , please?
213 °C

Param item = O=C(NCC1CCN(CC2(C(=O)O)CCOCC2)CC1)N1C(=O)C2(CCCC2)c2ccc(F)cc21 ; retrieve measured melting point.
161.3 °C

Could you share which melting point value was measured for O=C(NCC1CCN(CC2(C(=O)O)CCC2)CC1)N1C(=O)C2(CCCC2)c2ccccc21 ?
171 °C

Which measured melting point value corresponds to O=C(NCC1CCN(CC2(C(=O)O)CCCC2)CC1)N1C(=O)C2(CCCC2)c2ccccc21 ?
188.1 °C

I am curious: what melting point value has been reported for CC(C)(CN1CCC(CNC(=O)N2C(=O)C(C)(C)c3ccc(F)cc32)CC1)C(=O)O ?
134 °C

So what does the record say about melting point for CC1(C)C(=O)N(C(=O)NCC2CCN(CC3(C(=O)O)CCC3)CC2)c2cc(F)ccc21 ?
193 °C

Please report the recorded melting point for O=C(NCC1CCN(CC2(C(=O)O)CC2)CC1)N1C(=O)C2(CCCC2)c2ccccc21 .
186.5 °C

Which melting point reading was recorded for the compound CC1(C)C(=O)N(C(=O)NCC2CCN(CC3(C(=O)O)CCC3)CC2)c2ccccc21 ?
170.9 °C

Quick check: melting point of O=C(NCC1CCN(CC2(C(=O)O)CCCCC2)CC1)N1C(=O)C2(CCCC2)c2ccccc21 ?
160.4 °C

What does the data say about its melting point? Entry: O=C(NCC1CCN(CC2(C(=O)O)CCC2)CC1)N1C(=O)C2(CCCC2)c2ccc(F)cc21
150.3 °C

# lookup: melting point of CC(C)(CN1CCC(F)(CNC(=O)N2C(=O)C(C)(C)c3ccccc32)CC1)C(=O)O
156 °C

Which value of melting point has been reported for CC(C)(CN1CCC(CNC(=O)N2C(=O)C3(CCCC3)c3ccccc32)CC1)C(=O)O in the records?
189.1 °C

Record request: melting point value, item CC(C)(CN1CCC(F)(CNC(=O)N2C(=O)C(C)(C)c3ccc(F)cc32)CC1)C(=O)O
176 °C

Requested read-out: melting point. Entry: CC1(C)C(=O)N(C(=O)NCC2(O)CCN(CC3(C(=O)O)CCC3)CC2)c2cc(F)ccc21
159 °C

Can you share its melting point? I mean this compound: O=C(NCC1CCN(CC2(C(=O)O)CCOCC2)CC1)N1C(=O)C2(CCCC2)c2ccccc21
146.3 °C
